Molecular target: 5-hydroxytryptamine receptor 1A (Homo sapiens, UniProt P08908)
Sequence (P08908 whole entry): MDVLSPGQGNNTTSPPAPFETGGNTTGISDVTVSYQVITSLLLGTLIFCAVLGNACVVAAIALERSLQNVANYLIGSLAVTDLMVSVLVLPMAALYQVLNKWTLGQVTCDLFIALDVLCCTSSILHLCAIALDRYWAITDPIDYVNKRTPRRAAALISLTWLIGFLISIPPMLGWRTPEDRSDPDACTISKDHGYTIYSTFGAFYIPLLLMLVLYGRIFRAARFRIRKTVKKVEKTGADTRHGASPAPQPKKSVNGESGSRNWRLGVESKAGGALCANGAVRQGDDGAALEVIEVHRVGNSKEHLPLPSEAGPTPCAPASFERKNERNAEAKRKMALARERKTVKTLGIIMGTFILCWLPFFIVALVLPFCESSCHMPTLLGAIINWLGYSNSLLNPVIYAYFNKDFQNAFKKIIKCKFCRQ
Assay type: functional, cell-based
READOUT_LABEL: AC50

Example entries and their recorded answers appear below.
- COMPOUND: "Cc1cc(-c2ccccc2)nnc1NCCN1CCOCC1 [MINAPRINE]"
  TGT: "5-hydroxytryptamine receptor 1A (Homo sapiens, UniProt P08908)"
  AC50: "> 10 µM"
- COMPOUND: "CN1CCC2=C(C1)C(c1ccccc1)c1ccccc12 (centres undefined) [PHENINDAMINE]"
  TGT: "5-hydroxytryptamine receptor 1A (Homo sapiens, UniProt P08908)"
  AC50: "> 10 µM"
- COMPOUND: "CC(C)(Oc1ccc(C2CC2(Cl)Cl)cc1)C(=O)O (centres undefined) [CIPROFIBRATE]"
  TGT: "5-hydroxytryptamine receptor 1A (Homo sapiens, UniProt P08908)"
  AC50: "> 30 µM"
- COMPOUND: "CC(N)Cc1ccccc1 (centres undefined) [AMPHETAMINE]"
  TGT: "5-hydroxytryptamine receptor 1A (Homo sapiens, UniProt P08908)"
  AC50: "> 30 µM"

Could you share what AC50 was measured for C#CCN[C@@H]1CCc2ccccc21 [RASAGILINE] , tested on 5-hydroxytryptamine receptor 1A (Homo sapiens, UniProt P08908)?
> 30 µM

Next compound up: CC(=O)N(CC(O)CO)c1c(I)c(C(=O)NCC(O)CO)c(I)c(C(=O)NCC(O)CO)c1I (centres undefined) [IOHEXOL]
> 10 µM

Try this compound next: CC(=O)OCC(=O)[C@@]1(O)CC[C@H]2[C@@H]3CCC4=CC(=O)CC[C@]4(C)[C@H]3C(=O)C[C@@]21C [CORTISONE ACETATE]
> 30 µM

Further, for CCCCOc1cc(C(=O)NCCN(CC)CC)c2ccccc2n1 [DIBUCAINE] ?
> 10 µM

Query CN1CCCN=C1COC(=O)C(O)(c1ccccc1)C1CCCCC1 (centres undefined) [OXYPHENCYCLIMINE] next
> 10 µM

###

// reported AC50 for each item listed
Molecular target: Sodium channel protein type 5 subunit alpha (Homo sapiens, UniProt Q14524); further: assay procedure not described here
Sequence (Q14524 whole entry): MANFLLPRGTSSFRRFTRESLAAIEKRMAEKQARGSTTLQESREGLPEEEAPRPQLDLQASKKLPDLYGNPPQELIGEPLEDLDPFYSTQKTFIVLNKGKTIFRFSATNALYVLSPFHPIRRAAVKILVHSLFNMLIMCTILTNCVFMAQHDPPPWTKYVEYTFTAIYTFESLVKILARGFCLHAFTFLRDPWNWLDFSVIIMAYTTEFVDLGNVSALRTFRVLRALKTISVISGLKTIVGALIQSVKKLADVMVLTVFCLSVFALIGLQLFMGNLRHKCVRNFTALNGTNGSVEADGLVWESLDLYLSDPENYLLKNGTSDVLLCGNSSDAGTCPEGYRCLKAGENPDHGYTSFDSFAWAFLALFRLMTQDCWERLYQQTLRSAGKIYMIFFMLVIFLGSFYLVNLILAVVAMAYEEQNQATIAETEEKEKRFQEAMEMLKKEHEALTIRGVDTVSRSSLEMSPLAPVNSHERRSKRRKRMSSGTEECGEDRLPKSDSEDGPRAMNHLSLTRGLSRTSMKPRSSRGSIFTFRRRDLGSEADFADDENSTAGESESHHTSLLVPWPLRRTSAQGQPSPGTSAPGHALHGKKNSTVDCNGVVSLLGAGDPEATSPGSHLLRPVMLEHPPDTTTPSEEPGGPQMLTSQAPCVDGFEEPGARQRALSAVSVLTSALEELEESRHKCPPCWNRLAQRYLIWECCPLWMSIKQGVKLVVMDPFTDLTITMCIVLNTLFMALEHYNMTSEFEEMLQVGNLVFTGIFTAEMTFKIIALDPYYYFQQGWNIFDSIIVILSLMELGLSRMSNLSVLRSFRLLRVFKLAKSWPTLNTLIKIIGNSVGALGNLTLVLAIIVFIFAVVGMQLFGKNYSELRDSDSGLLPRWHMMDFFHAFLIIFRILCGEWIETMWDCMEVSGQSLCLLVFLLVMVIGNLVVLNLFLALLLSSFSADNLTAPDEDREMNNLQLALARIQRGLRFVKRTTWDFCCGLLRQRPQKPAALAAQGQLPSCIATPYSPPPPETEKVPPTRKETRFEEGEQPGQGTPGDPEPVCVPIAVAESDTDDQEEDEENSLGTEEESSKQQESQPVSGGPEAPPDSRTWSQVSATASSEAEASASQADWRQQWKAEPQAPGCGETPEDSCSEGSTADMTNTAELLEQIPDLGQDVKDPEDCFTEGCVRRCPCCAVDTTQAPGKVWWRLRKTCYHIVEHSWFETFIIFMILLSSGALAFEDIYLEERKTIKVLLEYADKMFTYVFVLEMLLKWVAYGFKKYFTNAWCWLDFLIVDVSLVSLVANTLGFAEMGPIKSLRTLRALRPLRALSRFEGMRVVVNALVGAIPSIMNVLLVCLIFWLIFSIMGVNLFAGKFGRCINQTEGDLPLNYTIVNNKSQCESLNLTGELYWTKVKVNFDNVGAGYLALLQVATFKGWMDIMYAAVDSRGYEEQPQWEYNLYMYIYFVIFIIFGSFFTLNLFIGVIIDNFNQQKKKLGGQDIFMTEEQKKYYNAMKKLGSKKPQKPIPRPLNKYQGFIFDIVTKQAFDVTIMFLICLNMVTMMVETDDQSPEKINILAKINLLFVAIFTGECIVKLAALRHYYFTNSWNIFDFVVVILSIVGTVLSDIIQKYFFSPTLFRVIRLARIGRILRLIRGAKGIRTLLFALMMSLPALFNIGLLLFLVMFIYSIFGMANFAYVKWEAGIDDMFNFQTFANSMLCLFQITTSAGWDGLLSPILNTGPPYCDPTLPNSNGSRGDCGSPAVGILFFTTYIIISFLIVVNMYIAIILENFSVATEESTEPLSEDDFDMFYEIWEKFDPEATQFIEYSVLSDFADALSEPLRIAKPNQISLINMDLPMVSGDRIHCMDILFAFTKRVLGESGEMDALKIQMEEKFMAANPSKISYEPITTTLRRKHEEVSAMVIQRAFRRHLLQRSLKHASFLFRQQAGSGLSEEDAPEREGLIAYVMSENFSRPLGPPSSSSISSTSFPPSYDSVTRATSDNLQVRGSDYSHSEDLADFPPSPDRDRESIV
Format: functional, cell-based

- COMPOUND: "CS(=O)(=O)c1ccc([C@@H](O)[C@@H](CO)NC(=O)C(Cl)Cl)cc1"
  TGT: "Sodium channel protein type 5 subunit alpha (Homo sapiens, UniProt Q14524)"
  AC50: "> 50 µM"
- COMPOUND: "CCOC(=O)N[C@@H]1CC[C@@H]2[C@@H](C1)C[C@H]1C(=O)O[C@H](C)[C@H]1[C@H]2/C=C/c1ccc(-c2cccc(F)c2)cn1"
  TGT: "Sodium channel protein type 5 subunit alpha (Homo sapiens, UniProt Q14524)"
  AC50: "> 50 µM"
- COMPOUND: "COC(=O)N[C@H](C(=O)N1CCC[C@H]1c1nc(-c2ccc(-c3ccc(-c4c[nH]c([C@@H]5CCCN5C(=O)[C@@H](NC(=O)OC)C(C)C)n4)cc3)cc2)c[nH]1)C(C)C"
  TGT: "Sodium channel protein type 5 subunit alpha (Homo sapiens, UniProt Q14524)"
  AC50: "> 30 µM"
- COMPOUND: "COC(=O)C1=C(C)NC(C)=C(C(=O)OCC(C)C)C1c1ccccc1[N+](=O)[O-] (stereo not given)"
  TGT: "Sodium channel protein type 5 subunit alpha (Homo sapiens, UniProt Q14524)"
  AC50: "8.6 µM"

Now consider the entry below.
Need AC50 of CN[C@@H](C)[C@H](O)c1ccccc1 , thanks.
> 30 µM

###

The following are reported AC50 results, target or system Histamine H1 receptor (Homo sapiens, UniProt P35367). Further: assay procedure not described here.

Worked cases, AC50 given:
- COMPOUND: "CCC(C(=O)O)c1ccc(CC(C)C)cc1 (stereo not given)"
  AC50: "> 30 µM"
- COMPOUND: "CCCCCN(C)CCC(O)(P(=O)(O)O)P(=O)(O)O"
  AC50: "> 30 µM"
- COMPOUND: "OCCN1CCN(CCCN2c3ccccc3C=Cc3ccccc32)CC1"
  AC50: "0.081 µM"
- COMPOUND: "O=C(O)CCn1c2c(c3ccccc31)C[C@H](NS(=O)(=O)c1ccc(F)cc1)CC2"
  AC50: "> 10 µM"
- COMPOUND: "CC(C)(N)Cc1ccc(Cl)cc1"
  AC50: "14 µM"

Quick one: AC50 of NS(=O)(=O)c1cc(-c2nnn[nH]2)c(NCc2cccs2)cc1Cl [AZOSEMIDE] ?
> 30 µM

Let us now turn to O=C(O)CCCc1ccccc1
> 30 µM

Also check NC(=O)c1ncn([C@@H]2O[C@H](CO)[C@@H](O)[C@H]2O)c1O
> 30 µM

Same again, this time with C[N+](C)(C)CC(=O)O
> 30 µM

// query: C=C1C[C@@H]2[C@H](CC[C@]3(C)C(=O)CC[C@@H]23)[C@@]2(C)C=CC(=O)C=C12
> 10 µM

###

Target: Thromboxane A2 receptor (Homo sapiens); further: assay procedure not described here
Sequence (P21731 whole entry): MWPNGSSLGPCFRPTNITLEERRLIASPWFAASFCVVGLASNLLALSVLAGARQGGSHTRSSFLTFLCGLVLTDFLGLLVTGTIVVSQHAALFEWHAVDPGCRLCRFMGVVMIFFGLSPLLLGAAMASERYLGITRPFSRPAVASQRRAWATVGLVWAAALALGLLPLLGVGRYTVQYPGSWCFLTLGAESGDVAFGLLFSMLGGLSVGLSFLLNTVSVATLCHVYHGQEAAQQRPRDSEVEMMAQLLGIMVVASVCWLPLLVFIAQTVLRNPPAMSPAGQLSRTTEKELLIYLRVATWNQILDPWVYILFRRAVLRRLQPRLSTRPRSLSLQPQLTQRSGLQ
Type: functional
Here, each record is paired with measured AC50 data.

- COMPOUND: "NC(=O)c1cnccn1 [PYRAZINAMIDE]"
  OBSERVED_RESULT: "> 30 µM"
- COMPOUND: "Oc1ncnc2[nH]ncc12 [ALLOPURINOL]"
  OBSERVED_RESULT: "> 30 µM"
- COMPOUND: "CC(C)C(=O)Nc1ccc([N+](=O)[O-])c(C(F)(F)F)c1 [FLUTAMIDE]"
  OBSERVED_RESULT: "> 10 µM"

# AC50 lookup, item CC(C)Cc1ccc(CC(=O)O)cc1 [IBUFENAC]
> 30 µM

Same read-out for CO/N=C(\C(=O)N[C@@H]1C(=O)N2C(C(=O)[O-])=C(C[N+]3(C)CCCC3)CS[C@H]12)c1csc(N)n1 ?
> 300 µM

Here is the next compound: CC(C)NNC(=O)c1ccncc1 [IPRONIAZID]
> 30 µM

How about this compound: Nc1nc(N)c2nc(-c3ccccc3)c(N)nc2n1
> 30 µM

Okay, and O=C(Nc1ccccc1)OCC(CN1CCCCC1)OC(=O)Nc1ccccc1 (stereo not drawn) [DIPERODON] ?
> 30 µM

###

Reported values: AC50 for Sodium-dependent noradrenaline transporter (Homo sapiens, UniProt P23975), one per item.

- COMPOUND: "COc1ccc2c(c1)c(CC(=O)OCC(=O)O)c(C)n2C(=O)c1ccc(Cl)cc1 [ACEMETACIN]"
  AC50: "> 30 µM"
- COMPOUND: "COC(=O)C1=C(C)NC(C)=C(C(=O)OCC(C)C)C1c1ccccc1[N+](=O)[O-] (stereo not drawn) [NISOLDIPINE]"
  AC50: "> 10 µM"
- COMPOUND: "CC(C)NCC1CCc2cc(CO)c([N+](=O)[O-])cc2N1 (stereo not drawn) [OXAMNIQUINE]"
  AC50: "> 30 µM"
- COMPOUND: "C1=Cc2cccc(OCC3CNCCO3)c2C1 (stereo not drawn) [INDELOXAZINE]"
  AC50: "0.7 µM"
- COMPOUND: "CCCCCCCCOc1ccccc1C(=O)Nc1ccc(C(=O)OCC[N+](C)(CC)CC)cc1 [OTILONIUM BROMIDE]"
  AC50: "3.3 µM"
- COMPOUND: "CN[C@@H]1[C@H](O)[C@H](NC)[C@H]2O[C@@]3(O)C(=O)C[C@@H](C)O[C@H]3O[C@@H]2[C@H]1O [SPECTINOMYCIN]"
  AC50: "> 10 µM"
- COMPOUND: "CCOc1cc(N)c([N+](=O)[O-])cc1C(=O)NC1CCN(CC2CC=CCC2)CC1 (stereo not drawn) [CINITAPRIDE]"
  AC50: "24 µM"

Please give the measured AC50 for this compound: Cc1ccc(C(=O)c2cc(O)c(O)c([N+](=O)[O-])c2)cc1 [TOLCAPONE]
12.9 µM

###

# maps each entry to its AC50
Target: 5-hydroxytryptamine receptor 1A (Homo sapiens)
Assay type: functional, cell-based

The cases that follow already have their AC50 on record.
- COMPOUND: "CCC[C@@H]1C[C@@H](C(=O)N[C@@H]([C@H]2O[C@H](SC)[C@H](O)[C@@H](O)[C@H]2O)[C@H](C)Cl)N(C)C1"
  OBSERVED_RESULT: "> 10 µM"
- COMPOUND: "Cc1cc(-c2ccccc2)nnc1NCCN1CCOCC1"
  OBSERVED_RESULT: "> 10 µM"
- COMPOUND: "CC(C(=O)O)c1ccc(C(=O)c2cccs2)cc1 (stereo not drawn)"
  OBSERVED_RESULT: "> 10 µM"
- COMPOUND: "CN1CC(=O)N2[C@H](c3ccc4c(c3)OCO4)c3[nH]c4ccccc4c3C[C@@H]2C1=O"
  OBSERVED_RESULT: "> 10 µM"
- COMPOUND: "NS(=O)(=O)c1cc2c(cc1Cl)NCNS2(=O)=O [HYDROCHLOROTHIAZIDE]"
  OBSERVED_RESULT: "> 10 µM"
- COMPOUND: "COC(=O)[C@@H]1CC2=CC(=O)CC[C@]2(C)[C@@]23O[C@@H]2C[C@@]2(C)[C@@H](CC[C@@]24CCC(=O)O4)[C@H]13"
  OBSERVED_RESULT: "> 30 µM"
- COMPOUND: "CCC(C(=O)O)c1ccc(CC(C)C)cc1 (stereo not drawn)"
  OBSERVED_RESULT: "> 30 µM"

Look up AC50: C=C1C[C@@H]2[C@H](CC[C@]3(C)C(=O)CC[C@@H]23)[C@@]2(C)C=CC(=O)C=C12
> 10 µM
